- SYSTEM: human glucagon receptor (human, UniProt P47871 26-477)
- Sequence (P47871 26-477): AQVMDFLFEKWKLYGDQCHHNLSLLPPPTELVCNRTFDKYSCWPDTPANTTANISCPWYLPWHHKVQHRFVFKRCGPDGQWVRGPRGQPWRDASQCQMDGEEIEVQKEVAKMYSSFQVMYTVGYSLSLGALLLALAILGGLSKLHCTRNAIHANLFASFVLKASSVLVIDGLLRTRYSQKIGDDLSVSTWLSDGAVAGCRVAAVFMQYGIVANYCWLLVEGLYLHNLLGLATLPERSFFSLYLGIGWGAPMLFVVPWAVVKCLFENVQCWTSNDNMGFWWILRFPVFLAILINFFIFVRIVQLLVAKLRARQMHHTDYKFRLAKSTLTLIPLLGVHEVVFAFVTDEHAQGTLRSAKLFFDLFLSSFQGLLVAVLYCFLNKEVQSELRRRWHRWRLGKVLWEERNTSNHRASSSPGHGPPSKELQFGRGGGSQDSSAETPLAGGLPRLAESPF
- ASSAY NAME: cell-based or functional assay
Where no end group is shown, it is not given here. [ ]: non-standard residue; d: D form. Aib = CC(C)(N)C(=O)O
Strictly below 200 pM in hGcgR CRE Luc EC50 (pM): label 1. Otherwise: label 0.

is_below(hGcgR CRE Luc EC50 (pM), 200 pM) for H[Aib]HGTFTSDYSILLEKQAAREFVQWLLEGGPSSGAPPPS-OH (not fully specified (residue 16); printed as H-Aib-HGTFTSDYSILLE-K[(2S)-2-amino-6-[[(2S)-2-amino-6-[[(4S)-4-carboxy-4-(19-carboxynonadecanoylamino)butanoyl]amino]hexanoyl]amino]hexanoyl]-QAAREFVQWLLEGGPSSGAPPPS-OH) [Compound No. 55] ?
label 1

is_below(hGcgR CRE Luc EC50 (pM), 200 pM) for H[Aib]HGTFTSDYSYYLEKKAA[Aib]EFVQWLLEGGPSSGAPPPS-NH2 (not fully specified (residue 16); printed as H-Aib-HGTFTSDYSYYLE-K[(2S)-2-amino-6-[[(2S)-2-amino-6-[[(4S)-4-carboxy-4-(19-carboxynonadecanoylamino)butanoyl]amino]hexanoyl]amino]hexanoyl]-KAA-Aib-EFVQWLLEGGPSSGAPPPS-NH2) [Compound No. 31] ?
label 1

is_below(hGcgR CRE Luc EC50 (pM), 200 pM) for Y[Aib]QGTFTSDYSIYLDKKAA[Aib]EFVNWLLAGGPSSGAPPPS-NH2 (not fully specified (residue 17); printed as Y-Aib-QGTFTSDYSIYLDK-K[2-[2-[2-[[2-[2-[2-[[(4S)-4-carboxy-4-[[4-[(19-carboxynonadecanoylamino)methyl]cyclohexanecarbonyl]amino]butanoyl]amino]ethoxy]ethoxy]acetyl]amino]ethoxy]ethoxy]acetyl]-AA-Aib-EFVNWLLAGGPSSGAPPPS-NH2) [Compound No. 10] ?
label 0

is_below(hGcgR CRE Luc EC50 (pM), 200 pM) for Y[Aib]QGTFTSDYSIYLEKQAA[Aib]EFVQWLLEGGPSSGAPPPS-NH2 (not fully specified (residue 16); printed as Y-Aib-QGTFTSDYSIYLE-K[2-[2-[2-[[2-[2-[2-[[(4S)-4-carboxy-4-[[4-[(19-carboxynonadecanoylamino)methyl]cyclohexanecarbonyl]amino]butanoyl]amino]ethoxy]ethoxy]acetyl]amino]ethoxy]ethoxy]acetyl]-QAA-Aib-EFVQWLLEGGPSSGAPPPS-NH2) [Compound No. 14] ?
label 0

is_below(hGcgR CRE Luc EC50 (pM), 200 pM) for Y[Aib]QGTFTSDYSIYLDKKAA[Aib]EFVNWLLAGGPSSGAPPPS-NH2 (not fully specified (residue 17); printed as Y-Aib-QGTFTSDYSIYLDK-K[2-[2-[2-[[2-[2-[2-[[(4S)-4-carboxy-4-(19-carboxynonadecanoylamino)butanoyl]amino]ethoxy]ethoxy]acetyl]amino]ethoxy]ethoxy]acetyl]-AA-Aib-EFVNWLLAGGPSSGAPPPS-NH2) [Compound No. 9] ?
label 1

is_below(hGcgR CRE Luc EC50 (pM), 200 pM) for H[Aib]HGTFTSDYSILLEKQAAQEFVQWLLEGGPSSGAPPPS-OH (not fully specified (residue 16); printed as H-Aib-HGTFTSDYSILLE-K[(2S)-2-amino-6-[[(2S)-2-amino-6-[[(4S)-4-carboxy-4-(19-carboxynonadecanoylamino)butanoyl]amino]hexanoyl]amino]hexanoyl]-QAAQEFVQWLLEGGPSSGAPPPS-OH) [Compound No. 53] ?
label 1

Attribution: patent US20230391845A1
